Assay: AUC in liver of mouse bearing human A2780 cells at 80 mg/kg, ip administered as DMSO/egg phospholipid formulation
Format: ADME, organism-based
Set-up: dose 80 mg/kg, route intraperitoneal
quantity-name: AUC

compound | AUC
C=CCNC1=C2C[C@@H](C)C[C@H](OC)[C@H](O)[C@@H](C)/C=C(\C)[C@H](OC(N)=O)[C@@H](OC)/C=C\C=C(/C)C(=O)NC(=CC1=O)C2=O [TANESPIMYCIN] | 263 µM·h

Turning now to a further compound:
Please report the recorded AUC for CO[C@H]1/C=C\C=C(/C)C(=O)NC2=CC(=O)C(N)=C(C[C@@H](C)C[C@H](OC)[C@H](O)[C@@H](C)/C=C(\C)[C@@H]1OC(N)=O)C2=O .
59 µM·h

----------
Target: UniProt:P08238
Sequence (P08238 whole entry): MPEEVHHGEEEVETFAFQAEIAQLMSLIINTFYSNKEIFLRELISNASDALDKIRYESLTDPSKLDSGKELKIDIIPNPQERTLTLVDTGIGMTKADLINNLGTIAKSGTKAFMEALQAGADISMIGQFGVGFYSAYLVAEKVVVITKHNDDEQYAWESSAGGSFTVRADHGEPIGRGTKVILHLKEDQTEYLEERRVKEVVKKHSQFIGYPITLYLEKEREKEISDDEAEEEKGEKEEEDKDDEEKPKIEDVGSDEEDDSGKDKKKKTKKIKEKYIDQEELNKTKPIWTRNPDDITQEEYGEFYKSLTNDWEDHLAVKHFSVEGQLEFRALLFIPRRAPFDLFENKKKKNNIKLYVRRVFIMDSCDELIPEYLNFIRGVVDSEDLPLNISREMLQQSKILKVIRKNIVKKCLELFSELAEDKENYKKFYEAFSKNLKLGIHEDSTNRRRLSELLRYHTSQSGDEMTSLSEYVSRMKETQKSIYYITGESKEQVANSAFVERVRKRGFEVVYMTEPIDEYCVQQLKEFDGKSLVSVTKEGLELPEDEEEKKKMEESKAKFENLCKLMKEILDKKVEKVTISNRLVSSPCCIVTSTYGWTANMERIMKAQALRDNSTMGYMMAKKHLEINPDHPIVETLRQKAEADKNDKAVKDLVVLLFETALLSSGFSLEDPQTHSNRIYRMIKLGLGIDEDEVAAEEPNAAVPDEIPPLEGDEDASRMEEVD
quantity-name: IC50 (nM)
State the answer as a number, implicitly in nM.

Give IC50 (UniProt:P08238) of the following compound: CO[C@H]1/C=C\C=C(/C)C(=O)NC2=CC(=O)C(N)=C(C[C@@H](C)C[C@H](OC)[C@H](O)[C@@H](C)/C=C(\C)[C@@H]1OC(N)=O)C2=O
7

----------
Experiment: Cmax in plasma of mouse bearing human WM266.4 cells at 50 mg/kg, ip
Type: ADME, organism-based
Design: dose 50 mg/kg, route intraperitoneal
quantity-name: Cmax

Which Cmax value belongs to CCNC(=O)c1noc(-c2cc(C(C)C)c(O)cc2O)c1-c1ccc(CN2CCOCC2)cc1 ?
53 µM

----------
Test: Cmax in tumor of mouse bearing human WM266.4 cells at 50 mg/kg, iv
Assay type: ADME, organism-based, Neoplasm
Parameters: dose 50 mg/kg, route intravenous
Conditions: read-out: Cmax_tumor
quantity-name: Cmax (µM)
Provide only the numeric value, understood in µM.

Given the entry CCNC(=O)c1noc(-c2cc(C(C)C)c(O)cc2O)c1-c1ccc(CN2CCOCC2)cc1 , report its measured Cmax.
14

----------
Assay: Half life in tumor of mouse bearing human A2780 cells at 80 mg/kg, ip administered as DMSO/egg phospholipid formulation
Format: ADME, organism-based, Neoplasm
Design: dose 80 mg/kg, route intraperitoneal
quantity-name: half-life (h)
Give the value in h but do not write h after it.

mol | experimental-result
CO[C@H]1/C=C\C=C(/C)C(=O)NC2=CC(=O)C(N)=C(C[C@@H](C)C[C@H](OC)[C@H](O)[C@@H](C)/C=C(\C)[C@@H]1OC(N)=O)C2=O | 13.7

Proceeding to the next compound to report its half-life.
Look up half-life: C=CCNC1=C2C[C@@H](C)C[C@H](OC)[C@H](O)[C@@H](C)/C=C(\C)[C@H](OC(N)=O)[C@@H](OC)/C=C\C=C(/C)C(=O)NC(=CC1=O)C2=O
7.5

----------
Assay: Cmax in mouse at 100 mg/kg, po
Type: ADME, organism-based
Set-up: dose 100 mg/kg, route oral
Conditions: in vivo
quantity-name: Cmax (µM)
Express it in µM; write the number only.

Would you kindly share the measured Cmax for COc1c(C)cnc(Cn2cnc3c(Cl)nc(N)nc32)c1C ?
31

----------
Assay: AUC in tumor of mouse bearing human A2780 cells at 80 mg/kg, ip administered as DMSO/egg phospholipid formulation
Format: ADME, organism-based, Neoplasm
Design: dose 80 mg/kg, route intraperitoneal
quantity-name: AUC (µM·h)
State just the number; it will be interpreted in µM·h.

mol | AUC [µM·h]
C=CCNC1=C2C[C@@H](C)C[C@H](OC)[C@H](O)[C@@H](C)/C=C(\C)[C@H](OC(N)=O)[C@@H](OC)/C=C\C=C(/C)C(=O)NC(=CC1=O)C2=O | 80

# get_value(readout='AUC', item= CO[C@H]1/C=C\C=C(/C)C(=O)NC2=CC(=O)C(N)=C(C[C@@H](C)C[C@H](OC)[C@H](O)[C@@H](C)/C=C(\C)[C@@H]1OC(N)=O)C2=O )
43

----------
Assay: Metabolic stability in human liver microsomes assessed as drug remaining after 30 mins
Assay type: ADME, Microsome
Settings: read-out: Stability
quantity-name: remaining at 0.5 h (%)
The reply should be a number in %, with the unit left off.

// remaining at 0.5 h lookup, key: CCNC(=O)c1noc(-c2cc(C(C)C)c(O)cc2O)c1-c1ccc(CN2CCOCC2)cc1 [LUMINESPIB]
41

----------
Test: Tmax in human at 220 mg/m2 administered as DMSO/egg phospholipid formulation
Type: ADME, organism-based
Conditions: in vivo
quantity-name: Tmax (h)
# number only, unit h dropped from output

// query Tmax value for entry CO[C@H]1/C=C\C=C(/C)C(=O)NC2=CC(=O)C(N)=C(C[C@@H](C)C[C@H](OC)[C@H](O)[C@@H](C)/C=C(\C)[C@@H]1OC(N)=O)C2=O
1.7

----------
Assay: Half life in plasma of mouse bearing human WM266.4 cells at 50 mg/kg, ip
Type: ADME, organism-based
Set-up: dose 50 mg/kg, route intraperitoneal
quantity-name: half-life (h)
Report the value in h with no unit label.

GET /values?readout=half-life&item= CCNC(=O)c1noc(-c2cc(C(C)C)c(O)cc2O)c1-c1ccc(CN2CCOCC2)cc1 [LUMINESPIB]
1

----------
Assay: Half life in tumor of mouse bearing human WM266.4 cells at 50 mg/kg, ip
Type: ADME, organism-based, Neoplasm
Design: dose 50 mg/kg, route intraperitoneal
quantity-name: half-life (h)
Please give a number only; it is taken to be in h.

Recorded half-life of CCNC(=O)c1noc(-c2cc(C(C)C)c(O)cc2O)c1-c1ccc(CN2CCOCC2)cc1 , please.
15

----------
Test: AUC in plasma of mouse bearing human WM266.4 cells at 50 mg/kg, iv
Assay type: ADME, organism-based
Design: dose 50 mg/kg, route intravenous
quantity-name: AUC (µM·h)
Quick note: give the figure in µM·h, leave out the unit.

Need AUC of CCNC(=O)c1noc(-c2cc(C(C)C)c(O)cc2O)c1-c1ccc(CN2CCOCC2)cc1 , thanks.
15

----------
Test: Solubility in water
Format: physicochemical
quantity-name: solubility
Please state the number and follow it with the unit.

I am curious: what solubility value has been reported for C=CCNC1=C2C[C@@H](C)C[C@H](OC)[C@H](O)[C@@H](C)/C=C(\C)[C@H](OC(N)=O)[C@@H](OC)/C=C\C=C(/C)C(=O)NC(=CC1=O)C2=O ?
20 µg/mL

----------
Test: AUC in tumor of mouse bearing human WM266.4 cells at 50 mg/kg, iv
Format: ADME, organism-based, Neoplasm
Design: dose 50 mg/kg, route intravenous
quantity-name: AUC (µM·h)
Answer in µM·h, number only, no unit symbol.

Which AUC is reported for this compound? CCNC(=O)c1noc(-c2cc(C(C)C)c(O)cc2O)c1-c1ccc(CN2CCOCC2)cc1
70

----------
Assay: Half life in tumor of mouse bearing human WM266.4 cells at 50 mg/kg, iv
Type: ADME, organism-based, Neoplasm
Design: dose 50 mg/kg, route intravenous
quantity-name: half-life

Any idea what its half-life is? The molecule is CCNC(=O)c1noc(-c2cc(C(C)C)c(O)cc2O)c1-c1ccc(CN2CCOCC2)cc1 [LUMINESPIB]
15 h

----------
Assay: Apparent volume of distribution in tumor of mouse bearing human WM266.4 cells at 50 mg/kg, iv
Assay type: ADME, organism-based, Neoplasm
Design: dose 50 mg/kg, route intravenous
Details: read-out: Vz
quantity-name: Vd (L)
Record the value in L, omitting the unit from your answer.

What Vd value was documented for this compound, CCNC(=O)c1noc(-c2cc(C(C)C)c(O)cc2O)c1-c1ccc(CN2CCOCC2)cc1 [LUMINESPIB] ?
0.44

----------
Target: UniProt P08238
quantity-name: pIC50
Quick note: pIC50 values are minus log10 of concentrations in mol/L.

Give UniProt P08238 pIC50 for CO[C@H]1/C=C\C=C(/C)C(=O)NC2=CC(=O)C(N)=C(C[C@@H](C)C[C@H](OC)[C@H](O)[C@@H](C)/C=C(\C)[C@@H]1OC(N)=O)C2=O
7.92

----------
Known half-life of a selection of compounds
Test: Chemical stability assessed as half life
Assay type: physicochemical
Write the answer as a number in h, unit excluded.

mol | unit-text | half-life
CO[C@H]1/C=C\C=C(/C)C(=O)NC2=CC(=O)C(NCCN(C)C)=C(C[C@@H](C)C[C@H](OC)[C@H](O)[C@@H](C)/C=C(\C)[C@@H]1OC(N)=O)C2=O | h | 0.433

Please find the next compound below.
// returns reported half-life for input C=CCNC1=C2C[C@@H](C)C[C@H](OC)[C@H](O)[C@@H](C)/C=C(\C)[C@H](OC(N)=O)[C@@H](OC)/C=C\C=C(/C)C(=O)NC(=CC1=O)C2=O
9.8

----------
Assay: Volume of distribution at steady state in human at 220 mg/m2 administered as DMSO/egg phospholipid formulation
Format: ADME, organism-based
Details: in vivo, read-out: Vdss
quantity-name: Vd

Fill blank: measured Vd of the compound CO[C@H]1/C=C\C=C(/C)C(=O)NC2=CC(=O)C(N)=C(C[C@@H](C)C[C@H](OC)[C@H](O)[C@@H](C)/C=C(\C)[C@@H]1OC(N)=O)C2=O is ____.
230 L
